Tested on: RXF 393 renal
Measurement Description: NCI tumour cell line growth inhibition, 48 h
Metric Name: TGI (µM)
The figure you give is taken to be in µM; do not add the unit.

In the examples that follow, each entry is paired with its recorded TGI.
Molecule	TGI, µM
Cc1c(C)c2c(c(N)c1C#N)C(=O)N(Nc1ccccc1)C2=O	47.1
CCOc1ccccc1NC(=O)CC1SC(=Nc2ccc([N+](=O)[O-])cc2)NC1=O (configuration not stated)	39.7
O=C(CNc1ccc2c(c1)C(=O)c1ccccc1C2=O)Nc1ccc2c(c1)C(=O)c1ccccc1C2=O	2.04
NC(N)=N/N=C\c1cccc(OCc2ccccc2)c1	6.64

Quick note, TGI for `CCOC(=O)N1CCc2cc(OC)c(OC)c3c2c1cc1cc(OC)c(OC)cc13` landed at 12.1

Quick note, TGI for `COc1ccccc1CCN=C1NC(=O)/C(=C/c2ccc3ncccc3c2)S1` landed at 16.9

Quick note, TGI for `CC(C)[C@H](CO)Nc1nc(Nc2ccc(C(=O)NCCNS(=O)(=O)c3cccc4c(N(C)C)cccc34)c(Cl)c2)c2ncn(C(C)C)c2n1` landed at 1.78

Quick note, TGI for `CN(C)c1ccc(/C=c2/c3ccccc3n3nc4ccccc4c23)cc1` landed at 66.8

Quick note, TGI for `O=C(CNc1cccc([N+](=O)[O-])c1)Nn1c(-c2ccccc2)nc2ccccc2c1=O` landed at 1.08

Quick note, TGI for `COc1cc(-c2nn(-c3cccc(NC(=O)Nc4cc(C(F)(F)F)cc(C(F)(F)F)c4)c3)cc2-c2ccncc2)ccc1Cl` landed at 2.15

Quick note, TGI for COC(=O)C(=O)OC1(C(C)=O)CC2(c3ccccc3)OC1(c1ccccc1)c1ccccc12 (configuration not stated) landed at 29

====

System: SF-295 CNS
Measurement Description: NCI tumour cell line growth inhibition, 48 h
Metric Name: TGI

In the examples that follow, each entry is paired with its recorded TGI.
Compound	Measured Value
Nc1c2c(=O)[nH]c(=O)c2c(N)c2c(=O)c3ccccc3c(=O)c12	3.07 µM
CC(=O)OC1COC(Nc2ccc(C(C)=O)cc2)C(OC(C)=O)C1OC(C)=O (centres undefined)	> 100 µM
COc1ccccc1CCN=C1NC(=O)/C(=C/c2ccc3ncccc3c2)S1	> 21.8 µM

Quick note, TGI for O=C(CC1(O)C(=O)Nc2c(Cl)ccc(Cl)c21)c1ccc2ccccc2c1 (centres undefined) landed at 27.7 µM

Quick note, TGI for `COc1ccc(-n2nnnc2-c2c[nH]c3c(F)cc(F)cc23)cc1` landed at 59.6 µM

Quick note, TGI for O=S1CCS(=O)CCS(=O)CC1 (centres undefined) landed at > 100 µM

====

System: BT-549 breast
Measurement Description: NCI tumour cell line growth inhibition, 48 h
Documented TGI across a set of compounds

In the examples that follow, each entry is paired with its recorded TGI.
Compound	Experimental Target	Measured Value
O=C(/C=C/c1cccnc1)NCCCCC1CCCN(C(=O)c2ccccc2)C1 (stereo not drawn)	BT-549 breast	> 100 µM
CC(=O)[C@@]1(O)CC[C@H]2[C@@H]3C[C@H](C)C4=CC(=O)CC[C@]4(C)[C@H]3[C@@H](O)C[C@@]21C	BT-549 breast	> 100 µM
CN(CCCCN1CCCC1)CCCN(C)C(=O)Cc1ccc(Cl)c(Cl)c1	BT-549 breast	32.5 µM
CCCc1cc2c(=O)c(C(=O)OC)c[nH]c2cc1N(CC)CC	BT-549 breast	> 100 µM

Quick note, TGI for `COc1ccc(-c2c(=O)[nH]n3c(=S)nc(-c4ccccc4)[nH]c23)cc1OC` landed at 37.6 µM

Quick note, TGI for `O=C1C(N2CCNCC2)=C(Cl)C(=O)c2ncccc21` landed at > 10 µM

Quick note, TGI for `C=C1C(=O)O[C@H]2[C@H]1CC/C(Cn1cc(-c3cc(C(F)(F)F)cc(C(F)(F)F)c3)nn1)=C\CC[C@@]1(C)O[C@@H]21` landed at 0.509 µM

Quick note, TGI for CCC(CO)Nc1nc(NCc2ccccc2O)c2ncn(C(C)C)c2n1 (stereo not drawn) landed at > 100 µM

====

Tested on: SNB-19 CNS
Measurement Description: NCI tumour cell line growth inhibition, 48 h
Documented TGI across a set of compounds

Compound	TGI
COc1cc(C2c3cc(O)c(OC)cc3C3OCC2C3CO)ccc1O (configuration not stated)	> 100 µM
COc1cc(C)c(Cl)cc1C1=NN(c2ccc(S(N)(=O)=O)cc2)C(/C=C/c2ccccc2)C1 (configuration not stated)	> 100 µM
CC(C)=CCNc1ncnc2nc[nH]c12	> 100 µM
O=C(Nc1cccc(Cl)c1)c1ccc(NC2=C(Cl)C(=O)N(Cc3ccccc3)C2=O)cc1	> 59.2 µM
Cc1ccc(NC(=O)CSc2nc(C)nc3c2sc(=S)n3-c2ccccc2)cc1	> 10 µM
COc1cc(-c2nn(-c3cccc(NC(=O)Nc4cc(C(F)(F)F)cc(C(F)(F)F)c4)c3)cc2-c2ccncc2)ccc1Cl	4.25 µM
CC(=O)Nc1ccc(NC(=O)c2c(Cl)c(Cl)c(Cl)c(Cl)c2-c2nc3ccccc3[nH]2)cc1	> 100 µM
NC(N)=N/N=C\c1cccc(OCc2ccccc2)c1	23.3 µM
COc1cc(C)c(/C=C/C(=O)N2C(=O)OC[C@@H]2c2ccccc2)c(C)c1	> 100 µM
Oc1ccccc1/C=N/Nc1nc(N/N=C/c2ccccc2O)nc(N/N=C/c2ccccc2O)n1	> 100 µM

TGI for SNB-19 CNS with input `C=C(CN1C(=O)[C@H]2CCCN2C(=O)c2ccccc21)c1ccc(C(=O)O)cc1` equals > 100 µM

====

System: T-47D breast
Measurement Description: NCI tumour cell line growth inhibition, 48 h
Metric Name: TGI

Quick note, TGI for `O=C1C(N2CCNCC2)=C(Cl)C(=O)c2ncccc21` landed at > 10 µM

Quick note, TGI for O=C1CC(O)c2c(Br)sc(Br)c21 (stereo not drawn) landed at 30.5 µM

Quick note, TGI for C=C(C)C1Cc2c(cc(O)c3c(=O)c4c(oc23)C(O)Oc2cc(OC)c(OC)cc2-4)O1 (stereo not drawn) landed at > 10 µM

====

System: OVCAR-4 ovarian
Measurement Description: NCI tumour cell line growth inhibition, 48 h
Documented TGI across a set of compounds

In the examples that follow, each entry is paired with its recorded TGI.
Compound	Experimental Target	Metric Name	Measured Value
N#CN=C(N)NC(=O)/C=C/C=C/c1ccc(Cl)cc1	OVCAR-4 ovarian	TGI	> 100 µM
Oc1ccccc1C=NCc1ccco1	OVCAR-4 ovarian	TGI	> 100 µM
CCCCCCCCCc1cc(-c2ccc(C=O)s2)sc1-c1ccc(C=O)s1	OVCAR-4 ovarian	TGI	> 80.4 µM
O=C(CO)CC(=O)C(=O)Nc1ccccc1	OVCAR-4 ovarian	TGI	> 100 µM

TGI for OVCAR-4 ovarian with input `CC(=O)[CH-]C(=O)c1ccccc1.CC(=O)[CH-]C(=O)c1ccccc1.CC1(C)C2CCC1(C)C([O-])C2.CC1(C)C2CCC1(C)C([O-])C2.[Ti+4]` equals > 100 µM

TGI for OVCAR-4 ovarian with input `COc1ccccc1CCN=C1NC(=O)/C(=C/c2ccc3ncccc3c2)S1` equals 20.5 µM

TGI for OVCAR-4 ovarian with input O=C1c2ccccc2NC(=O)C2C1C(c1ccccc1)CC2(O)c1ccccc1 (stereo not given) equals > 100 µM

TGI for OVCAR-4 ovarian with input `C=C(CN1C(=O)[C@H]2CCCN2C(=O)c2ccccc21)c1ccc(C(=O)O)cc1` equals > 100 µM

TGI for OVCAR-4 ovarian with input `COC(=O)Nc1nc2cc(OC)c(OC)cc2c(=O)[nH]1` equals > 100 µM

TGI for OVCAR-4 ovarian with input `Oc1cc(Br)cc2cccnc12` equals > 65.3 µM

TGI for OVCAR-4 ovarian with input COc1cc(C2c3cc(O)c(OC)cc3C3OCC2C3CO)ccc1O (stereo not given) equals > 100 µM

====

Documented TGI across a set of molecules
Tested on: SK-MEL-28 melanoma
Measurement Description: NCI tumour cell line growth inhibition, 48 h

In the examples that follow, each entry is paired with its recorded TGI.
Molecule	TGI
C=CC(c1ccccc1)[C@@]1(OC(C)=O)C(=O)C(=O)OC1C1COC(C)(C)O1 (some centres undefined)	24.6 µM
CC(C)(C)OC(=O)c1cnc(Cl)cn1	> 100 µM
O=C(/C=C/c1cccnc1)NCCCCC1CCCN(C(=O)c2ccccc2)C1 (centres undefined)	> 100 µM
O=C1SS(=O)c2ccccc21 (centres undefined)	> 100 µM
O=c1[nH]/c(=C/c2ccc(OCc3ccccc3)cn2)c(=O)[nH]/c1=C/c1ccc([N+](=O)[O-])cc1	> 100 µM
COc1cc(/C=C2\C[C@H]3[C@@H]4CC=C5C=C(N6CCCC6)CC[C@]5(C)[C@H]4CC[C@]3(C)C2=O)cc(OC)c1OC	19.5 µM
CN(C)c1ccc([O][Bi]([Cl])[Cl])cc1	> 100 µM
CCCCCCCCCc1cc(-c2ccc(C=O)s2)sc1-c1ccc(C=O)s1	> 100 µM

Shifting focus to the molecule that follows.
Quick note, TGI for O=C1NC(O)C(c2c[nH]c3ccccc23)=C1c1c[nH]c2ccccc12 (centres undefined) landed at > 25 µM
